- Test system: proteases in Pelophylax esculentus skin secretion
- Format: in vitro ADME
- condition-description: sample 1: HCl final concentration 1%; sum of all proteolytic forms; LC-HRMS; all forms = 100%
Bridges are numbered along the chain shown (N, C = ends). Where no end group is shown, it is not given here.
quantity: Proteoforms, % (%)
Record the value in %, omitting the unit from your answer.

Recall the recorded Proteoforms, % for GIFSKLGRKKIKNLLISGLKNVGKEVGMDVVRTGIDIAGCKIKGEC (disulfide 40-46) [Escul 1, Esculentin 1] with proteases in Pelophylax esculentus skin secretion and state it. 51.77

Here is the next substance: GXLDSLKNLAKNAAQILLNKASCKLSGQC-OH (disulfide) [Brev 2Rd, Brevinin 2Rd, natural disulfide skin peptide of Pelophylax esculentus, brevinin 2 family, 29 aa] 0.39

Item: GXLDSLKNFAKDAAGILLKKASCKLSGQC-OH (disulfide) [Brev 2Ra, Brevinin 2Ra, natural disulfide skin peptide of Pelophylax esculentus, brevinin 2 family, 29 aa] 1.02
